TEST_TARGET: hERG channel (Homo sapiens (Human), UniProt Q12809)
Sequence (Q12809 whole entry): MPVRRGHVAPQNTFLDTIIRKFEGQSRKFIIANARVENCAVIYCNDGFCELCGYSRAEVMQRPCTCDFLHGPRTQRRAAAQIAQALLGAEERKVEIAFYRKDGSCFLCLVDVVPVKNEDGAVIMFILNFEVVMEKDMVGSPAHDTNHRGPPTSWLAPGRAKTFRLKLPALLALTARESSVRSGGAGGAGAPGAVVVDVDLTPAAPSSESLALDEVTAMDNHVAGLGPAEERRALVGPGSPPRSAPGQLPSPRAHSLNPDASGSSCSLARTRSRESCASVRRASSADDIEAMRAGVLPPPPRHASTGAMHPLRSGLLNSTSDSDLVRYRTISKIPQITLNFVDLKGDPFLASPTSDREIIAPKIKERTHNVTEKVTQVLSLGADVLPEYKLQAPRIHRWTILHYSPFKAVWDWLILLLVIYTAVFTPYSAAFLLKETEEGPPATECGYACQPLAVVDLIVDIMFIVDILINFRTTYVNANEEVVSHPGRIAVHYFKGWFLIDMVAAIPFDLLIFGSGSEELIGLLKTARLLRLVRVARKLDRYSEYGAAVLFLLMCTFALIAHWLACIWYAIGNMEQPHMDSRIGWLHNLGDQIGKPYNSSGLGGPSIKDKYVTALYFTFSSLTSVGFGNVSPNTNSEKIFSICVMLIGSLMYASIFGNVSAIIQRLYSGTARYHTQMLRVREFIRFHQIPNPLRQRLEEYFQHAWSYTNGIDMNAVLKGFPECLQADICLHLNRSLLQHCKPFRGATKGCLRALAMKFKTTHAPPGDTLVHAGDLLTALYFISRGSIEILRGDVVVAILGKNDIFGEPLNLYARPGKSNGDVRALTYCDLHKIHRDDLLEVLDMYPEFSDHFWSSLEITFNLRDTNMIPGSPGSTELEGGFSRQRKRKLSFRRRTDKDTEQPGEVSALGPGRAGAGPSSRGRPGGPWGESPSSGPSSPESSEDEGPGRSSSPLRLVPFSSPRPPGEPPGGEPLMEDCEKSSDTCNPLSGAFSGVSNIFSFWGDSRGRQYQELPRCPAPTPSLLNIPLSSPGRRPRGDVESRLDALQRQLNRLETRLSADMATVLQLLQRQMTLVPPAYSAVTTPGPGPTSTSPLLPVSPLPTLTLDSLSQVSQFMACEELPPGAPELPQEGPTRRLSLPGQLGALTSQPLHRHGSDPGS
ASSAY_METHOD_TEXT: Human ERG channel binding assay (fluorescence polarization)
STUDY_CONDITIONS: Table 2, comparative examples; tracer displacement, 4 h at room temperature
pIC50: −log10 of the molar value.
TEST_READOUT: pIC50

Consider the following illustrative entries.
1. CC(C)C[C@H]1CN(C2CCN(c3nnc(N)[nH]3)CC2)[C@@H](Cc2ccc(Cl)cc2)CN1C [Example C12, reference compound]; > 6.00
2. Nc1nnc(N2CCC(N3CCOC[C@@H]3Cc3ccc(Cl)cc3)CC2)[nH]1 [Example C1, reference compound]; 4.60 to 5.00
3. Nc1nnc(N2CCC(N3C[C@@H]4CCCN4C[C@@H]3Cc3ccc(Cl)cc3)CC2)[nH]1 [Example C15, reference compound]; 5.00 to 6.00

Consider the following items and state reported pIC50 for each.
1. Nc1nnc(N2CCC(N3Cc4cc(Cl)cc(Cl)c4OC[C@@H]3Cc3ccc(Cl)cc3)CC2)[nH]1 [Example C21, reference compound]
2. CO[C@H]1CN(C2CCN(c3nnc(N)[nH]3)CC2)[C@H]1Cc1ccc(Cl)cc1 [Example C6, reference compound]
3. C[C@H]1CN(C2CCN(c3nnc(N)[nH]3)CC2)[C@@H](Cc2ccc(Cl)cc2)CN1C [Example C8, reference compound]

RESULT:
["5.00 to 6.00", "> 6.00", "5.00 to 6.00"]

====

Provide the reported IC50 of each item.
TEST_TARGET: recombinant human CHIT1 (Homo sapiens (Human), UniProt Q13231)
Sequence (Q13231 22-466): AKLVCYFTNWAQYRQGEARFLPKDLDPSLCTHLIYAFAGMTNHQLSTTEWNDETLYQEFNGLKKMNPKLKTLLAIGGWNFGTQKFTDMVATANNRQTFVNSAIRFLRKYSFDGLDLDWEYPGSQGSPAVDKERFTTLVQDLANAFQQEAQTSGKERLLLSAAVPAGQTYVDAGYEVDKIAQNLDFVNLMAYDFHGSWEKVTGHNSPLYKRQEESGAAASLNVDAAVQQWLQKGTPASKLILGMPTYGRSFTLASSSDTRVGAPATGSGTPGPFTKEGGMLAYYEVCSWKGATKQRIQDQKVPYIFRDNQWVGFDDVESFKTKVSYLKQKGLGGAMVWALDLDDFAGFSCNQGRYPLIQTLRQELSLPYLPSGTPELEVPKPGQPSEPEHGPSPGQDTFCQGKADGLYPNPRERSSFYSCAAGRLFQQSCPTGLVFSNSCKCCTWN
ASSAY_METHOD_TEXT: Human CHIT1 activity assay
Assay type: biochemical
STUDY_CONDITIONS: recombinant human CHIT1, citrate buffer pH 5.2, 37° C., 60 minutes; read-out: hCHIT1, IC50

Consider the following illustrative entries.
1. CC(C)(O)[C@H]1CN(C2CCN(c3nnc(N)[nH]3)CC2)[C@@H](Cc2ccc(Br)cc2)CO1 [Example 64, 2,2,2-trifluoroacetate]; < 100 nM
2. Cc1nc([C@H]2CN(C3CCN(c4nnc(N)[nH]4)CC3)[C@@H](Cc3ccc(Cl)cc3)CO2)oc1C [Example 50, 2,2,2-trifluoroacetate]; < 100 nM
3. Nc1nnc(N2CCC(N3C[C@H](C(=O)N4CCC(F)(F)C4)OC[C@@H]3Cc3ccc(Cl)cc3)CC2)[nH]1 [Example 54, 2,2,2-trifluoroacetate]; 100 to 1000 nM
4. CNS(=O)(=O)CCNC(=O)[C@H]1CN(C2CCN(c3nnc(N)[nH]3)CC2)[C@@H](Cc2ccc(Cl)cc2)CO1 [Example 46, 2,2,2-trifluoroacetate]; < 100 nM
5. Nc1nnc(N2CCC(N3C[C@H](CC(F)(F)F)OC[C@@H]3Cc3ccc(Cl)cc3)CC2)[nH]1 [Example 14, 2,2,2-trifluoroacetate]; < 100 nM

# IC50 (compound: Nc1nnc(N2CCC(N3C[C@H](Cn4ccnc4)OC[C@@H]3Cc3ccc(Cl)cc3)CC2)[nH]1 [Example 47, 2,2,2-trifluoroacetate] ) is < 100 nM

====

Provide the reported pIC50 of each item.
TEST_TARGET: recombinant human AMCase (Homo sapiens (Human), UniProt Q9BZP6)
Sequence (Q9BZP6 22-476): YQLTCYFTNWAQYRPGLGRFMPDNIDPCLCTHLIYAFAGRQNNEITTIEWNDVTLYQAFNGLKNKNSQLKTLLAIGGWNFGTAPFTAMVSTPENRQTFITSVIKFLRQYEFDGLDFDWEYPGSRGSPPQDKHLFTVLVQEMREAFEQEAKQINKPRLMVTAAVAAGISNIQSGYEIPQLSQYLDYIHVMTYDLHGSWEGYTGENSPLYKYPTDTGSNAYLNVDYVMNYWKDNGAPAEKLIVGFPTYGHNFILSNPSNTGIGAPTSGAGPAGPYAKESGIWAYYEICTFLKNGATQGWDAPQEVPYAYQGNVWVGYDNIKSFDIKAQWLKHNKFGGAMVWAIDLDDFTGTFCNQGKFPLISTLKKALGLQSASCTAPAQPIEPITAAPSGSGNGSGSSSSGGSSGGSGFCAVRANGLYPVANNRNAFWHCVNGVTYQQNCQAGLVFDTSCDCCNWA
ASSAY_METHOD_TEXT: Human AMCase activity assay
STUDY_CONDITIONS: citrate buffer pH 5.2, 37° C., 60 minutes, read-out: hAMCase, IC50
pIC50: −log10 of the molar value.

Consider the following illustrative entries.
1) CC(C)(C)NC(=O)[C@H]1CN(C2CCN(c3nnc(N)[nH]3)CC2)[C@@H](Cc2ccc(Cl)cc2)CO1 [Example 66, 2,2,2-trifluoroacetate]; > 7.00
2) Nc1nnc(N2CCC(N3C[C@H](c4ccn[nH]4)OC[C@@H]3Cc3ccc(Cl)cc3)CC2)[nH]1 [Example 12, 2,2,2-trifluoroacetate]; > 7.00

Now examine the next entry.
# pIC50 (compound: Cc1nc([C@H]2CN(C3CCN(c4nnc(N)[nH]4)CC3)[C@@H](Cc3ccc(Cl)cc3)CO2)oc1C [Example 50, 2,2,2-trifluoroacetate] ) is > 7.00

====

TEST_TARGET: hERG channel (Homo sapiens (Human), UniProt Q12809)
ASSAY_METHOD_TEXT: Human ERG channel binding assay (fluorescence polarization)
STUDY_CONDITIONS: Table 1; tracer displacement, 4 h at room temperature
pIC50: −log10 of the molar value. Counter-ions that a name gives are not always drawn.
Provide the reported pIC50 of each item.

Consider the following illustrative entries.
1. CC1(O)CCN(C2CCN(c3nnc(N)[nH]3)CC2)[C@@H](Cc2ccc(Cl)cc2)C1 (stereo partly drawn) [Example 59, 2,2,2-trifluoroacetate]; 4.00 to 4.60
2. Nc1nnc(N2CCC(N3C[C@@H]4COCCN4C[C@@H]3Cc3ccc(Cl)cc3)CC2)[nH]1 [Example 73, hydrochloride]; 5.00 to 6.00
3. Nc1nnc(N2CCC(N3C[C@H](CC(F)(F)F)OC[C@@H]3Cc3ccc(Cl)cc3)CC2)[nH]1 [Example 14, 2,2,2-trifluoroacetate]; < 4.00
4. Nc1nnc(N2CCC(N3CC(F)(F)CC[C@@H]3Cc3ccc(Cl)cc3)CC2)[nH]1 [Example 57, 2,2,2-trifluoroacetate]; < 4.00
5. Nc1nnc(N2CCC(N3C[C@H]([C@H](O)C(F)(F)F)OC[C@@H]3Cc3ccc(Cl)cc3)CC2)[nH]1 [Example 16, 2,2,2-trifluoroacetate]; < 4.00

# pIC50 (compound: Nc1nnc(N2CCC(N3C[C@H](CN4CCCCC4)OC[C@@H]3Cc3ccc(Cl)cc3)CC2)[nH]1 [Example 52, 2,2,2-trifluoroacetate] ) is 4.00 to 4.60

====

TEST_TARGET: recombinant human CHIT1 (Homo sapiens (Human))
ASSAY_METHOD_TEXT: Human CHIT1 activity assay
STUDY_CONDITIONS: recombinant human CHIT1, citrate buffer pH 5.2, 37° C., 60 minutes; read-out: hCHIT1, IC50
Provide the reported IC50 of each item.

Consider the following illustrative entries.
1. Nc1nnc(N2CCC(N3C[C@H](C(=O)N4CCOCC4)OC[C@@H]3Cc3ccc(Cl)cc3)CC2)[nH]1 [Example 63, 2,2,2-trifluoroacetate]; 100 to 1000 nM
2. Nc1nnc(N2CCC(N3C[C@H](C(F)F)OC[C@@H]3Cc3ccc(Cl)cc3)CC2)[nH]1 [Example 2, 2,2,2-trifluoroacetate]; < 100 nM
3. Nc1nnc(N2CCC(N3C[C@H](c4ccn[nH]4)OC[C@@H]3Cc3ccc(Cl)cc3)CC2)[nH]1 [Example 12, 2,2,2-trifluoroacetate]; < 100 nM
4. Cn1nccc1[C@H]1CN(C2CCN(c3nnc(N)[nH]3)CC2)[C@@H](Cc2ccc(Cl)cc2)CO1 [Example 10, 2,2,2-trifluoroacetate]; < 100 nM
5. C[C@@H](O)[C@H]1CN(C2CCN(c3nnc(N)[nH]3)CC2)[C@@H](Cc2ccc(Cl)cc2)CO1 [Example 67, 2,2,2-trifluoroacetate]; < 100 nM
6. CC1CN(C[C@H]2CN(C3CCN(c4nnc(N)[nH]4)CC3)[C@@H](Cc3ccc(Cl)cc3)CO2)C1 [Example 51, 2,2,2-trifluoroacetate]; 100 to 1000 nM

Consider the following items and state reported IC50 for each.
1. Nc1nnc(N2CCC(N3C[C@H](Cn4cccn4)OC[C@@H]3Cc3ccc(Cl)cc3)CC2)[nH]1 [Example 13, 2,2,2-trifluoroacetate]
2. CC1(C)CC1NC(=O)[C@H]1CN(C2CCN(c3nnc(N)[nH]3)CC2)[C@@H](Cc2ccc(Cl)cc2)CO1 (stereo partly drawn) [Example 23, 2,2,2-trifluoroacetate]
3. Cc1coc([C@H]2CN(C3CCN(c4nnc(N)[nH]4)CC3)[C@@H](Cc3ccc(Cl)cc3)CO2)n1 [Example 49, 2,2,2-trifluoroacetate]

RESULT:
1: < 100 nM; 2: < 100 nM; 3: < 100 nM

Consider the following items and state reported IC50 for each.
1. N#CC[C@H]1CN(C2CCN(c3nnc(N)[nH]3)CC2)[C@@H](Cc2ccc(Cl)cc2)CO1 [Example 6, 2,2,2-trifluoroacetate]
2. Nc1nnc(N2CCC(N3CC(F)(F)CC[C@@H]3Cc3ccc(Cl)cc3)CC2)[nH]1 [Example 57, 2,2,2-trifluoroacetate]
3. Cn1nnc(C[C@H]2CN(C3CCN(c4nnc(N)[nH]4)CC3)[C@@H](Cc3ccc(Cl)cc3)CO2)n1 [Example 5, 2,2,2-trifluoroacetate]
4. Nc1nnc(N2CCC(N3C[C@H](CN4CCC(F)(F)CC4)OC[C@@H]3Cc3ccc(Cl)cc3)CC2)[nH]1 [Example 38, 2,2,2-trifluoroacetate]
5. Nc1nnc(N2CCC(N3C[C@H](COCC(F)F)OC[C@@H]3Cc3ccc(Cl)cc3)CC2)[nH]1 [Example 43, 2,2,2-trifluoroacetate]

RESULT:
< 100 nM
< 100 nM
< 100 nM
< 100 nM
< 100 nM

Consider the following items and state reported IC50 for each.
1. CC(C)(F)[C@H]1CN(C2CCN(c3nnc(N)[nH]3)CC2)[C@@H](Cc2ccc(Cl)cc2)CO1 [Example 1, 2,2,2-trifluoroacetate]
2. CC(C)(C)NC(=O)[C@H]1CN(C2CCN(c3nnc(N)[nH]3)CC2)[C@@H](Cc2ccc(Cl)cc2)CO1 [Example 66, 2,2,2-trifluoroacetate]
3. Nc1nnc(N2CCC(N3C[C@H]([C@@H](O)C(F)(F)F)OC[C@@H]3Cc3ccc(Cl)cc3)CC2)[nH]1 [Example 17, 2,2,2-trifluoroacetate]
4. Nc1nnc(N2CCC(N3C[C@H](C(=O)N4CCCC4)OC[C@@H]3Cc3ccc(Cl)cc3)CC2)[nH]1 [Example 60, 2,2,2-trifluoroacetate]

RESULT:
< 100 nM
100 to 1000 nM
< 100 nM
100 to 1000 nM

Hey, just so you know, these numbers are from patent US11638707B2.
